The reported numbers originate from patent US20200392228A1.

Target: T1, human MAdCAM protein (human, UniProt Q13477 19-317)
T1 construct: used for Octet, SPR, ELISA and plate capture; construct not described; also called recombinant human MAdCAM; soluble monomeric human MAdCAM
T1 sequence (looked up): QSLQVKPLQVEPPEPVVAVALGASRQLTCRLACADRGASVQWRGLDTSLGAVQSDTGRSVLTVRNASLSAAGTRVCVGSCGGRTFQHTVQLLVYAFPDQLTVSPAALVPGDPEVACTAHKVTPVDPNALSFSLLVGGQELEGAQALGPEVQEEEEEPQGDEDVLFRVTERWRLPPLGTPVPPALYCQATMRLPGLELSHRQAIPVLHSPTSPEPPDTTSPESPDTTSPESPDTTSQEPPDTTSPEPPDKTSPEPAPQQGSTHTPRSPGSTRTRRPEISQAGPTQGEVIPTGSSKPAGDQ
Test: Octet
MEASURED QUANTITY: binding result

Field: example entries. Status: answers known.
>  <BINDER>
MAdCAM antibody Clone ID 17 of Table 7 (IgG) (antibody, V domains shown, IgG format) VH: QVQLVQSGAEVKKPGSSVKVSCKASGYTFTDYHIHWVRQAPGQGLEWMGGIVPRSGSTTYAQKFQGRVTITADESTSTAYMELSSLRSEDTAVYYCAKDESSGWYYFDYWGQGTLVTVSS VL: DIVMTQSPLSLPVTPGEPASISCRSSQSLLHSNGYNYLDWYLQKPGQSPQLLIYSAYNRASGVPDRFSGSGSGTDFTLKISRVEAEDVGVYYCMQALQTPLTFGQGTKVEIK

>  <RECORDED RESULT>
binds

$$$$
>  <BINDER>
MAdCAM antibody Clone ID 20 of Table 7 (IgG) (antibody, V domains shown, IgG format) VH: EVQLLESGGGLVQPGGSLRLSCAASGFTFSDSAMHWVRQAPGKGLEWVSAISGSGSTIYYADSVKGRFTISRDNSKNTLYLQMNSLRAEDTAVYYCVSDIAVAGHWYFDLWGRGTLVTVSS VL: DIQMTQSPSSLSASVGDRVTITCRASQSISTFLNWYQQKPGKAPKLLIYAASRLEGGVPSRFSGSGSGTDFTLTISSLQPEDFATYYCQQANSFPLTFGPGTKVDIK

>  <RECORDED RESULT>
binds

$$$$
>  <BINDER>
MAdCAM antibody Clone ID 6 of Table 7 (IgG) (antibody, V domains shown, IgG format) VH: EVQLLESGGGLVQPGGSLRLSCAASGFTFNNYAFHWVRQAPGKGLEWVSRINSYGTSTTYADSVKGRFTISRDNSKNTLYLQMNSLRAEDTAVYYCAREGPVAGYWYFDLWGQGTLVTVSS VL: DIQMTQSPSSLSASVGDRVTITCRASQIIGTNLAWYQQKPGKAPKLLIYGASSLQSGVPSRFSGSGSGTDFTLTISSLQPEDFATYYCQQSYRLPFTFGQGTKVEIK

>  <RECORDED RESULT>
binds

$$$$
>  <BINDER>
MAdCAM antibody Clone ID 23 of Table 7 (IgG) (antibody, V domains shown, IgG format) VH: EVQLLESGGGLVQPGGSLRLSCAASGFTFDDYAMHWVRQAPGKGLEWVSYIDTSSSHLYYADSVKGRFTISRDNSKNTLYLQMNSLRAEDTAVYYCARDEAAAGYYGMDVWGQGTTVTVSS VL: DIQMTQSPSSLSASVGDRVTITCQAGQDISNYLNWYQQKPGKAPKLLIYDASNLETGVPSRFSGSGSGTDFTLTISSLQPEDFATYYCQQTYSTPITFGQGTKLEIK

>  <RECORDED RESULT>
binds

$$$$
>  <BINDER>
MAdCAM antibody Clone ID 22 of Table 7 (IgG) (antibody, V domains shown, IgG format) VH: EVQLLESGGGLVQPGGSLRLSCAASGFTFDDYAMHWVRQAPGKGLEWVSGISWNSGSIGYADSVKGRFTISRDNSKNTLYLQMNSLRAEDTAVYYCAKDIVAAGHYYYGMDVWGQGTTVTVSS VL: DIQMTQSPSSLSASVGDRVTITCQASQDISNYLNWYQQKPGKAPKLLIYDASNLETGVPSRFSGSGSGTDFTLTISSLQPEDFATYYCQQSYSTPLTFGGGTKVEIK

>  <RECORDED RESULT>
binds

$$$$
>  <BINDER>
MAdCAM antibody Clone ID 79 of Table 7 (IgG) (antibody, V domains shown, IgG format) VH: EVQLLESGGGLVKPGGSLRLSCAASGFTFDDYAMHWVRQAPGKGLEWVASITSSSAFIDYAASVKGRFTISRDDSKNTLYLQMNSLKTEDTAVYYCARERVDWNSYFDLWGRGTLVTVSS VL: EIVMTQSPATLSVSPGERATLSCRASQGISNSYLAWYQQKPGQAPRLLIYGASTRATGIPARFSGSGSGTEFTLTISSLQSEDFAVYYCQQYYTYPPTFGPGTKVDIK

>  <RECORDED RESULT>
binds

$$$$

[in] Find the recorded binding result belonging to MAdCAM antibody Clone ID 30 of Table 7 (IgG) (antibody, V domains shown, IgG format) VH: EVQLLESGGGLVQPGGSLRLSCAASGFTFSSYAMHWVRQAPGKGLEWVSGISGSGGSAYYADSVKGRFTISRDNSKNTLYLQMNSLRAEDTAVYYCATSQAPVDYYYYGMDVWGQGTTVTVSS VL: DIQMTQSPSSLSASVGDRVTITCRASQSISSWLAWYQQKPGKAPKLLIYAASNLQRGVPSRFSGSGSGTDFTLTISSLQPEDFATYYCQQSYSIPITFGQGTKVEIK and report it.
[out] binds

[in] Find the recorded binding result belonging to MAdCAM antibody Clone ID 46 of Table 7 (IgG) (antibody, V domains shown, IgG format) VH: EVQLLESGGGLVQPGGSLRLSCAASGFSFSSYTMNWVRQAPGKGLEWVSFITSSSRTIYYADSVKGRFTISRDNSKNTLYLQMNSLRAEDTAVYYCARDRRGDYGDSWYFDLWGRGTLVTVSS VL: EIVMTQSPATLSVSPGERATLSCRASQSVRNYLAWYQQKPGQAPRLLIYGASTRATGIPARFSGSGSGTEFTLTISSLQSEDFAVYYCQQYGSSPLTFGGGTKVEIK and report it.
[out] binds

[in] Find the recorded binding result belonging to MAdCAM antibody Clone ID 75 of Table 7 (IgG) (antibody, V domains shown, IgG format) VH: EVQLLESGGGLVQPGGSLRLSCAASGFTFSDFWMHWVRQAPGKGLEWISYISGDSGYTNYADSVKGRFTISRDNSKNTLYLQMNSLRAEDTAVYYCARDRPYYYYMDVWGKGTTVTVSS VL: DIQMTQSPSSLSASVGDRVTITCRASQSVSRSLAWYQQKPGKAPKLLIYAASSLQSGVPSRFSGSGSGTDFTLTISSLQPEDFATYYCQQYKSYPVTFGQGTKVEIK and report it.
[out] binds
